The reported numbers originate from paper PMC8691714.

Assay: In vivo pharmacokinetic study in mice, oral ibrutinib (plasma, LC-MS/MS)
Conditions: male, FVB, mouse, plasma, po, 10 mg/kg, Ibrutinib AUC(0-last), male wild-type FVB mice; ibrutinib 10 mg/kg PO; co-treatment No Vehicle (cobicistat experiment); mean (SD)
Protocol: Experiments were performed with male and female mice from inbred wild-type strains (FVB, C57BL/6, DBA) or with age- and sex-matched genetically engineered mice with a deficiency of the Cyp3a locus [(8 genes; FVB.129P2-Cyp3a13^tm1Ahs Del (5Cyp3a57-Cyp3a59)1Ahs); ref. [16]; CYP3A^−/−], a deficiency of the intestinal transporter OATP2B1 (ref. [17]; OATP2B1 ^−/−), or the hepatic transporter OATP1B2 (ref. [18]; OATP1B2 ^−/−). […] The lower limit of quantification was 5 ng/mL, using 5-μL sample volumes. […]
measuredProperty: AUC(0-t) (ng·h/mL)
Numbers only, in ng·h/mL.

Identify the reported AUC(0-t) for the following entry. C=CC(=O)N1CCC[C@@H](n2nc(-c3ccc(Oc4ccccc4)cc3)c3c(N)ncnc32)C1
520

###

Assay: In vivo pharmacokinetic study in mice, oral ibrutinib (plasma, LC-MS/MS)
Conditions: female, FVB, mouse, plasma, po, 10 mg/kg, Ibrutinib AUC(0-last), female CYP3A-/- mice; ibrutinib 10 mg/kg oral; cotreatment corn oil; mean (SE)
measuredProperty: AUC(0-t) (ng·h/mL)
Answers are plain numbers, in ng·h/mL.

Return AUC(0-t) (reported value) for this compound: C=CC(=O)N1CCC[C@@H](n2nc(-c3ccc(Oc4ccccc4)cc3)c3c(N)ncnc32)C1
1410

###

Experiment: In vivo pharmacokinetic study in mice, oral ibrutinib (plasma, LC-MS/MS)
Details: female, FVB, mouse, plasma, po, 10 mg/kg, female CYP3A-/- mice; ibrutinib 10 mg/kg oral; cotreatment corn oil
measuredProperty: bioavailability

Tell me its bioavailability given C=CC(=O)N1CCC[C@@H](n2nc(-c3ccc(Oc4ccccc4)cc3)c3c(N)ncnc32)C1 as the entry.
27%

###

Assay: In vivo pharmacokinetic study in mice, oral ibrutinib (plasma, LC-MS/MS)
Details: male, C57BL/6, mouse, plasma, po, 10 mg/kg, Ibrutinib Cmax, male wild-type C57BL/6 mice; ibrutinib 10 mg/kg PO; no co-treatment; mean (SD)
Experimental: Experiments were performed with male and female mice from inbred wild-type strains (FVB, C57BL/6, DBA) or with age- and sex-matched genetically engineered mice with a deficiency of the Cyp3a locus [(8 genes; FVB.129P2-Cyp3a13^tm1Ahs Del (5Cyp3a57-Cyp3a59)1Ahs); ref. [16]; CYP3A^−/−], a deficiency of the intestinal transporter OATP2B1 (ref. [17]; OATP2B1 ^−/−), or the hepatic transporter OATP1B2 (ref. [18]; OATP1B2 ^−/−). […] The lower limit of quantification was 5 ng/mL, using 5-μL sample volumes. […]
measuredProperty: Cmax (ng/mL)
One number for each entry, in ng/mL.

For the molecule C=CC(=O)N1CCC[C@@H](n2nc(-c3ccc(Oc4ccccc4)cc3)c3c(N)ncnc32)C1 [Ibrutinib] , give its measured Cmax value.
1380

###

Assay: In vivo pharmacokinetic study in mice, oral ibrutinib (plasma, LC-MS/MS)
Conditions: female, DBA, mouse, plasma, po, 10 mg/kg, Ibrutinib Cmax, female OATP1B2(-/-) mice; ibrutinib 10 mg/kg PO; no co-treatment; mean (SD)
measuredProperty: Cmax (ng/mL)
Answers are plain numbers, in ng/mL.

Given the compound C=CC(=O)N1CCC[C@@H](n2nc(-c3ccc(Oc4ccccc4)cc3)c3c(N)ncnc32)C1 [Ibrutinib] , write its reported Cmax.
2170
